biological target: Voltage-gated inwardly rectifying potassium channel KCNH2 (Homo sapiens); test: Inhibition of human ERG by patch clamp electrophysiological analysis
Sequence (Q12809 whole entry): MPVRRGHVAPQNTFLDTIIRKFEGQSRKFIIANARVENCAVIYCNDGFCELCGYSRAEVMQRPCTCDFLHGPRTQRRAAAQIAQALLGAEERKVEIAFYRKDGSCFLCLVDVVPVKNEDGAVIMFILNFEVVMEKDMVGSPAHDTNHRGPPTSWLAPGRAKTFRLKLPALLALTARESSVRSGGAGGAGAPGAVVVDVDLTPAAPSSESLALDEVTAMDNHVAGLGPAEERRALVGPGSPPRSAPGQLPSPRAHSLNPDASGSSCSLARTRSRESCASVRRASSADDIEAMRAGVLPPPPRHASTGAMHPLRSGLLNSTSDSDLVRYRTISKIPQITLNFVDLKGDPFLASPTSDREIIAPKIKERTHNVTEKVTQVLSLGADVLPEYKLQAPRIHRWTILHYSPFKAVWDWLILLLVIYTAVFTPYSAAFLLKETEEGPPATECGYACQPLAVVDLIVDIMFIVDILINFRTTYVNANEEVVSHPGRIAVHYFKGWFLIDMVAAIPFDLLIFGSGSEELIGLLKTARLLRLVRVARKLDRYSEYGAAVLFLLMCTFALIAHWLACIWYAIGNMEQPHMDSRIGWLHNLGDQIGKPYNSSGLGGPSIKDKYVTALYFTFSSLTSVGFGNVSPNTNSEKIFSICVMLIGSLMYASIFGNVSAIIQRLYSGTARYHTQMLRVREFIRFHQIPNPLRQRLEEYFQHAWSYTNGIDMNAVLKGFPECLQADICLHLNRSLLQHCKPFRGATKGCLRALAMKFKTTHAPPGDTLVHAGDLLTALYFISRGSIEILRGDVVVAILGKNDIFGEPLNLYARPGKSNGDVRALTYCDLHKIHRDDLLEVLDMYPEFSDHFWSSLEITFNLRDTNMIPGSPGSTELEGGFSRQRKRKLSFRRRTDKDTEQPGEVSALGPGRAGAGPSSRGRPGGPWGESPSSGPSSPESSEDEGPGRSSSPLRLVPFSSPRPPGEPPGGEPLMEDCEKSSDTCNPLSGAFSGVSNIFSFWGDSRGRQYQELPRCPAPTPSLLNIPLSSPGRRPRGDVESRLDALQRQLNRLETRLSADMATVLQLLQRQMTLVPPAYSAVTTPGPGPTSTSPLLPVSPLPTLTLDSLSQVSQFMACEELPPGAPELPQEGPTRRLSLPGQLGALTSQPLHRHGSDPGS

smiles record: COc1cnc2ccc(=O)n(CCN3CC[C@@H](NCc4ccc5c(n4)NC(=O)CO5)[C@@H](OC)C3)c2c1
censoring sign: >
IC50 [µM]: 100
//
smiles record: COc1cnc2ccc(=O)n(CCN3CCC(NCc4cnc(OC)c(C#N)c4)CC3)c2c1
censoring sign: =
IC50 [µM]: 12
//
smiles record: Cc1ncc(CNC2CCN(CCn3c(=O)ccc4ccc(C#N)cc43)CC2)cc1C#N
censoring sign: =
IC50 [µM]: 26
//
smiles record: COc1cnc2ccc(=O)n(CCN3CCC(NC(=O)c4cnc(C)c(C#N)c4)CC3)c2c1
censoring sign: =
IC50 [µM]: 74
//
smiles record: Cc1ncc(CNC2CCN(CCn3c(=O)ccc4c3ccc(=O)n4C)CC2)cc1C#N
censoring sign: =
IC50 [µM]: 33
//
smiles record: COc1ccc2ccc(=O)n(CCN3CCC(NCc4ccc5c(n4)NC(=O)CO5)CC3)c2n1
censoring sign: =
IC50 [µM]: 21
//
smiles record: COc1ccc2c(ccc(=O)n2CCN2CCC(NCc3cnc(C)c(C#N)c3)CC2)n1
censoring sign: =
IC50 [µM]: 10
//
smiles record: Cc1nc(CNC2CCN(CCn3c(=O)ccc4ccc(C#N)cc43)CC2)ccc1C#N
censoring sign: =
IC50 [µM]: 5.3
//
smiles record: COc1cnc2ccc(=O)n(CCN3CC[C@@H](NCc4cnc(C)c(C#N)c4)[C@@H](F)C3)c2c1
censoring sign: =
IC50 [µM]: 90

----------
test: Octanol-sodium phosphate buffer partition coefficient, log D of the compound at 10 mM at pH 7.4 by shake-flask method; format: physicochemical
Decision: logD at 10000 µM >= 0.8 yields true, all other cases yield false.

smiles record: Cc1ncc(CN[C@@H]2CCN(CCn3c(=O)ccc4ncc(F)cc43)C[C@@H]2F)cc1C#N
group label: true
//
smiles record: COc1cnc2ncc(=O)n(CCN3CCC(NCc4cnc(C)c(C#N)c4)CC3)c2c1
group label: false
//
smiles record: Cc1nc(CNC2CCN(CCn3c(=O)ccc4ccc(C#N)cc43)CC2)ccc1C#N
group label: true
//
smiles record: COc1cnc2ccc(=O)n(CCN3CC[C@@H](NCc4ccc5c(n4)NC(=O)CO5)[C@@H](F)C3)c2c1
group label: false
//
smiles record: COc1cnc2ccc(=O)n(CCN3CCC(NCc4cnc(C)c(C#N)c4)CC3)c2c1
group label: true
//
smiles record: COc1cnc2ccc(=O)n(CCN3CC[C@@H](NCc4cnc(C)c(C#N)c4)[C@@H](F)C3)c2c1
group label: true
//
smiles record: O=C1COc2ccc(CN[C@H]3CCN(CCn4c(=O)ccc5ncc(F)cc54)C[C@H]3F)nc2N1
group label: false
//
smiles record: Cc1ncc(CNC2CCN(CCn3c(=O)ccc4c3ccc(=O)n4C)CC2)cc1C#N
group label: false
//
smiles record: COc1cnc2ccc(=O)n(CCN3CCC(NC(=O)c4cnc(C)c(C#N)c4)CC3)c2c1
group label: true
//
smiles record: COc1cc(C#N)c2ccc(=O)n(CCN3CCC(NCc4cnc(C)c(C#N)c4)CC3)c2c1
group label: true
//
smiles record: N#Cc1ccc2ccc(=O)n(CCN3CCC(NCc4cc5c(cn4)OCCO5)CC3)c2c1
group label: false
//
smiles record: COc1ccc2ncc(=O)n(CCN3CCC(NCc4cnc(C)c(C#N)c4)CC3)c2n1
group label: true
//
smiles record: Cc1ncc(CNC2CCN(CCn3c(=O)ccc4ccc(C#N)cc43)CC2)cc1C#N
group label: true
//
smiles record: Cc1ncc(CN[C@@H]2CCN(CCn3c(=O)ccc4ccc(C#N)cc43)C[C@@H]2F)cc1C#N
group label: true
//
smiles record: N#Cc1ccc2ccc(=O)n(CCN3CCC(NCc4ccc5c(n4)NC(=O)CO5)CC3)c2c1
group label: false
//
smiles record: COc1cnc2ccc(=O)n(CCN3CC[C@@H](NCc4cnc(C)c(C#N)c4)[C@@H](OC)C3)c2c1
group label: true
//
smiles record: COc1cnc2ccc(=O)n(CCN3CC[C@@H](NCc4ccc5c(n4)NC(=O)CO5)[C@@H](OC)C3)c2c1
group label: false
//
smiles record: O=C1COc2ccc(CN[C@@H]3CCN(CCn4c(=O)ccc5ncc(F)cc54)C[C@@H]3F)nc2N1
group label: false
//
smiles record: COc1cnc2ccc(=O)n(CCN3CCC(NCc4cnc(C)c(C#N)n4)CC3)c2c1
group label: true
//
smiles record: COc1cnc2ccc(=O)n(CCN3CCC(NCc4cnc(OC)c(C#N)c4)CC3)c2c1
group label: true
